study.target: human V1a receptor (Homo sapiens)
Construct: expressed in transfected cells
Sequence (P37288 whole entry): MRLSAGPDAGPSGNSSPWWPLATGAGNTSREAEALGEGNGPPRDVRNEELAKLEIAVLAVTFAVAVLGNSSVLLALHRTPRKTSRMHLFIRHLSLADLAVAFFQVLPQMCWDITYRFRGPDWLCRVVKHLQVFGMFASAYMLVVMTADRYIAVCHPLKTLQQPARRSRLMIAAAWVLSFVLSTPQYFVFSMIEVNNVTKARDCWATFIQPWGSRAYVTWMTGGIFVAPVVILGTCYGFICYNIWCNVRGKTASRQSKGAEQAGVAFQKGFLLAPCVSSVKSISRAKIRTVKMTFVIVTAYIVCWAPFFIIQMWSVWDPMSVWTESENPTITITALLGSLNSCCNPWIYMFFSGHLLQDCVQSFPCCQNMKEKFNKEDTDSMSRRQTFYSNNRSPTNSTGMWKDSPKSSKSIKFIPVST
test.name: In-vitro binding assay (3H-arginine-8-vasopressin), V1a
applied.conditions: membrane containing human V1a receptor; 3H-arginine-8-vasopressin 0.65-0.75 nM

# compound, study.target, IC50
data = [
    ("CON=C1CCCC12CCN(C(=O)c1ccc(NC(=O)c3cc(F)ccc3Cl)cc1)c1ccccc1C2 (stereo not shown) [Cpd 2]", "human V1a receptor (Homo sapiens)", "7 nM"),
    ("NC1CCCC12CCN(C(=O)c1ccc(NC(=O)c3ccccc3-c3ccccc3)cc1)c1ccccc1C2 (stereo not shown) [Cpd 39]", "human V1a receptor (Homo sapiens)", "80 nM"),
    ("O=C(Nc1ccc(C(=O)N2CCC3(CCCC3=NNc3ccccn3)Cc3ccccc32)cc1)c1cc(F)ccc1Cl (stereo not shown) [Cpd 43]", "human V1a receptor (Homo sapiens)", "5 nM"),
    ("NN=C1CCCC12CCN(C(=O)c1ccc(NC(=O)c3ccccc3-c3ccccc3)cc1)c1ccccc1C2 (stereo not shown) [Cpd 38]", "human V1a receptor (Homo sapiens)", "21 nM"),
]

----------
study.target: human V2 receptor (Homo sapiens)
Sequence (P30518 whole entry): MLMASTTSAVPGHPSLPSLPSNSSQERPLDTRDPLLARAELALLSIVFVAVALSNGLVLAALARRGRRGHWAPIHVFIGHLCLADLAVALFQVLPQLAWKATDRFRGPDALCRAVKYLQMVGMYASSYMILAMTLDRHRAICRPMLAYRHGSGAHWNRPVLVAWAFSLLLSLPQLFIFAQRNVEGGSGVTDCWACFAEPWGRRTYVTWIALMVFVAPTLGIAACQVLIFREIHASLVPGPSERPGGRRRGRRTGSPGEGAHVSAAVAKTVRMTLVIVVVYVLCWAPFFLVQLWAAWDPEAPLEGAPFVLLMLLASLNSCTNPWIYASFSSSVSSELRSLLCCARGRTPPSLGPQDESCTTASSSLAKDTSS
test.name: V2 vasopressin receptor functional activity (cAMP accumulation)
Assay type: cell-based
Design: expressed in transfected cells; host or cells: HEK-293
applied.conditions: V2-HEK cells; block of vasopressin-stimulated cAMP accumulation; read-out: V2 (functional) IC50
pIC50: −log10 of the molar value.

# compound, study.target, pIC50
records = [
    ("COc1cc(C(=O)N2CCC3(CCCC3=NO)Cc3ccccc32)ccc1NC(=O)c1cc(F)ccc1Cl (centres unmarked) [Cpd 42]", "human V2 receptor (Homo sapiens)", 7.04),
    ("COc1cc(C(=O)N2CC[C@@]3(CCC(=CC(N)=O)C3)Cc3ccccc32)ccc1NC(=O)c1cc(F)ccc1Cl [Cpd 32]", "human V2 receptor (Homo sapiens)", 7.47),
    ("CNC(=O)C=C1CC[C@@]2(CCN(C(=O)c3ccc(NC(=O)c4cc(F)ccc4Cl)c(OC)c3)c3ccccc3C2)C1 [Cpd 30]", "human V2 receptor (Homo sapiens)", 7.05),
    ("CON=C1CC[C@@]2(CCN(C(=O)c3ccc(NC(=O)c4cc(F)ccc4Cl)c(OC)c3)c3ccccc3C2)C1 [Cpd 22]", "human V2 receptor (Homo sapiens)", 6.13),
    ("NCCON=C1CCCC12CCN(C(=O)c1ccc(NC(=O)c3cccc(F)c3)cc1)c1ccccc1C2 (centres unmarked) [Cpd 41]", "human V2 receptor (Homo sapiens)", 6.15),
    ("O=C(Nc1ccc(C(=O)N2CCC3(CCCC3=NO)Cc3ccccc32)cc1)c1cc(F)ccc1Cl (centres unmarked) [Cpd 44]", "human V2 receptor (Homo sapiens)", 7.18),
    ("NCC(=O)NC1CCCC12CCN(C(=O)c1ccc(NC(=O)c3ccccc3-c3ccccc3)cc1)c1ccccc1C2 (centres unmarked) [Cpd 40]", "human V2 receptor (Homo sapiens)", 6.70),
    ("COc1cc(C(=O)N2CC[C@@]3(CCC(=NOCC(=O)O)C3)Cc3ccccc32)ccc1NC(=O)c1cc(F)ccc1Cl [Cpd 24]", "human V2 receptor (Homo sapiens)", 6.66),
    ("O=C(Nc1ccc(C(=O)N2CCC3(CCCC3=NO)Cc3ccccc32)cc1)c1ccccc1-c1ccccc1 (centres unmarked) [Cpd 37]", "human V2 receptor (Homo sapiens)", 7.05),
    ("COc1cc(C(=O)N2CC[C@]3(C=C(c4ncc[nH]4)CC3)Cc3ccccc32)ccc1NC(=O)c1cc(F)ccc1Cl [Cpd 14]", "human V2 receptor (Homo sapiens)", 6.14),
    ("COc1cc(C(=O)N2CC[C@@]3(CCC(=CC(=O)NCCN4CCOCC4)C3)Cc3ccccc32)ccc1NC(=O)c1cc(F)ccc1Cl [Cpd 28]", "human V2 receptor (Homo sapiens)", 6.70),
]
